- target.or.test.system: F508delCFTR (Homo sapiens, UniProt P13569, DEL508-508)
- Construct: expressed in transfected cells; host or cells: CFBE41o- human lung-derived epithelial cells (CFBE4lo-F508delCFTR-HRP), doxycycline-inducible
- Sequence (P13569 with tags, fused parts or gaps DEL508-508): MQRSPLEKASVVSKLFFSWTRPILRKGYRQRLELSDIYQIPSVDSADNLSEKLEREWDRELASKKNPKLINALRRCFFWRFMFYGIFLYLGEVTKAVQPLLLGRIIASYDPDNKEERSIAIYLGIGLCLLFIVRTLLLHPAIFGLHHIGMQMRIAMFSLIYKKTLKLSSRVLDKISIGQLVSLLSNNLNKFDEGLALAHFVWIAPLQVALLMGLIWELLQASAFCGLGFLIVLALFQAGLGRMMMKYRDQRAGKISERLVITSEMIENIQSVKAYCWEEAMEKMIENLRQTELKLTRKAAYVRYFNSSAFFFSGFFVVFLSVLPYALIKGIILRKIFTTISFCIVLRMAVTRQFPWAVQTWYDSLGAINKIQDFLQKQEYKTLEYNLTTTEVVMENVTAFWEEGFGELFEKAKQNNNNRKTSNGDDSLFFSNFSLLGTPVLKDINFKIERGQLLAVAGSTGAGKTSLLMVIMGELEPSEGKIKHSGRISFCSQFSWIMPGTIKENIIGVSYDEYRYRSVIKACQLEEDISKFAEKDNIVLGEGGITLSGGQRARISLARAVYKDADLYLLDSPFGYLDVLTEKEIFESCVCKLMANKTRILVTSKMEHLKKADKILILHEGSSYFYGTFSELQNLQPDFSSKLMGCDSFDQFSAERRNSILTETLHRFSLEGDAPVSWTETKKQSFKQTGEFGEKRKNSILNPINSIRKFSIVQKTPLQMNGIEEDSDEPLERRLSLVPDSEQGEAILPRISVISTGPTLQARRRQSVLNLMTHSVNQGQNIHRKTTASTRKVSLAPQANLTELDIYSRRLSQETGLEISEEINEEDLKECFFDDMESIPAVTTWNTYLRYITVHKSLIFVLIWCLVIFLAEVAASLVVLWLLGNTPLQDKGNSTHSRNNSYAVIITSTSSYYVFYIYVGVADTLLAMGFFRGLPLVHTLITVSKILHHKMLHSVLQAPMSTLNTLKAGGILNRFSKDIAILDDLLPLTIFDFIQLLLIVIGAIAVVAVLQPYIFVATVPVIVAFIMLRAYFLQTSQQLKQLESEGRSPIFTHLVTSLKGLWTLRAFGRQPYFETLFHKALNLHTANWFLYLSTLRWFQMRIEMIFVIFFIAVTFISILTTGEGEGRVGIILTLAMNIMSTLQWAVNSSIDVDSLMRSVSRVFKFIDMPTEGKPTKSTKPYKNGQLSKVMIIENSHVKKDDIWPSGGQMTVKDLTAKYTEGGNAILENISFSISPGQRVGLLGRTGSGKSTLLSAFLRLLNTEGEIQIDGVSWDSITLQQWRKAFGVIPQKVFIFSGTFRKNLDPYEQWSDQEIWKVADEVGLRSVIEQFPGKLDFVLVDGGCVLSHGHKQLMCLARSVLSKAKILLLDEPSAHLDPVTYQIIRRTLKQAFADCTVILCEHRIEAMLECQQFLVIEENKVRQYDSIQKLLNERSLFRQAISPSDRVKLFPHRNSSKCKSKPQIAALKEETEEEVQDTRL
- test.details: Cell Surface Expression-Horse Radish Peroxidase (CSE-HRP) Assay;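 also: co-corrector and positive control are both the same reference corrector at 2 µM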
- Type: cell-based
- experimental.parameters: with co-corrector (2 μM of 3-[(2R,4R)-4-({[1-(2,2-difluoro-1,3-benzodioxol-5-yl)cyclopropyl]carbonyl}amino)-7-methoxy-3,4-dihydro-2H-chromen-2-yl]benzoic acid); maximum at any tested concentration, normalized to on-plate positive control
value.kind: Maximum % activity (with co-corrector)

1. CC(C)(C)[C@@H]1[C@@H](NCc2cccnc2N2CCOCC2)[C@@H](c2ccccc2)N(C(=O)C2CCCCC2)[C@H]1C(=O)O (racemic) [III-28] ... ++ (≥150 and <350)
2. COc1ccc(Cl)cc1CN[C@@H]1[C@@H](C2CC2)[C@H](C(=O)O)N(C(=O)N(C(C)C)C(C)C)[C@@H]1c1ccccc1 (racemic) [III-48] ... ++ (≥150 and <350)
3. COc1ccc(C2(C#N)CC2)cc1CN[C@H]1[C@H](C(C)(C)C)[C@@H](C(=O)O)N(C(=O)C2CCCCC2)[C@H]1c1ccccc1 [II-400] ... +++ (≥350)
4. Cc1cc(C(F)(F)F)cc(N[C@@H]2[C@@H](C(C)(C)C)[C@H](C(=O)NS(=O)(=O)C3(C)CC3)N(C(=O)C3CCCCC3)[C@@H]2c2ccccc2)n1 (racemic) [III-51] ... ++ (≥150 and <350)

Give Maximum % activity (with co-corrector) for COc1ncc(-c2ccccc2)cc1CN[C@H]1[C@H](C(C)(C)C)[C@@H](C(=O)O)N(C(=O)C2CCCCC2)[C@H]1c1ccccc1F [II-423]
+++ (≥350)

Supply reported Maximum % activity (with co-corrector) belonging to this compound: COCCOc1cnc(Cl)cc1CN[C@@H]1[C@@H](C(C)(C)C)[C@H](C(=O)O)N(C(=O)C2CCCCC2)[C@@H]1c1ccccc1 (racemic) [III-72]
++ (≥150 and <350)

# return recorded Maximum % activity (with co-corrector) for entry COc1ncc(C(F)(F)F)cc1CN[C@H]1[C@H](C(C)(C)C)[C@@H](C(=O)O)N(C(=O)C2CCc3ccc(F)cc3O2)[C@H]1c1ccccc1 (stereo partly drawn) [II-435]
++ (≥150 and <350)

Give the reported value of Maximum % activity (with co-corrector) for this record: COc1ncc(C2CCC2)cc1CN[C@H]1[C@H](C(C)(C)C)[C@@H](C(=O)O)N(C(=O)[C@@H]2CCCO2)[C@H]1c1cccnc1C1CC1 [II-588]
+++ (≥350)

State its Maximum % activity (with co-corrector) for this compound: COc1ncc(-c2ccc(F)cc2C)cc1CN[C@H]1[C@H](C(C)(C)C)[C@@H](C(=O)O)N(C(=O)C2CCCCC2)[C@H]1c1ccccc1 [II-343]
+++ (≥350)

Provide only the value of recorded Maximum % activity (with co-corrector) for COc1ncc(C(F)(F)F)cc1CN[C@H]1[C@H](C23CC(C2)C3)[C@@H](C(=O)O)N(C(=O)OC(C)C)[C@H]1c1ccccc1F [II-544]
+++ (≥350)

Give a short answer stating reported Maximum % activity (with co-corrector) for COc1ccc(C2CCOCC2)cc1CN[C@H]1[C@H](C(C)(C)C)[C@@H](C(=O)O)N(C(=O)C2CCCCC2)[C@H]1c1ccccc1 [II-340] .
+++ (≥350)

Return Maximum % activity (with co-corrector) for the following compound: CC(C)OC(=O)N1[C@H](C(=O)O)[C@@H](C(C)(C)C)[C@H](NCC2CCCN(C(=O)OCc3ccccc3)C2)[C@@H]1c1ccccc1 (stereo partly drawn) [II-583]
+++ (≥350)

Entry COc1ccc(C(C)(C)C)cc1CN[C@H]1[C@H](C(C)(C)C)[C@@H](C(=O)O)N(C(=O)C2CCC(F)(F)CC2)[C@H]1c1cccnc1N(C)C [II-468] needs its Maximum % activity (with co-corrector) filled in; supply it.
+++ (≥350)

Please report the measured Maximum % activity (with co-corrector) for COc1ccc(C(C)(C)C)cc1CN[C@H]1[C@H](C(C)(C)C)[C@@H](C(=O)O)N(C(=O)C2CC2c2ccncc2)[C@H]1c1ccccc1 (stereo partly drawn) [II-331]
+++ (≥350)

Quickly give me recorded Maximum % activity (with co-corrector) for COc1ccc(C(F)(F)F)cc1CN[C@@H]1[C@@H](C(C)(C)C)[C@H](C(=O)O)N(C(=O)C2CCCCC2)[C@@H]1c1cccnc1N(C)C (racemic) [III-41]
+++ (≥350)

Note Maximum % activity (with co-corrector) for the compound shown: COc1ccc(C(C)(C)C)cc1CN[C@H]1[C@H](C(C)(C)C)[C@@H](C(=O)O)N(C(=O)C(C)Sc2ccccc2)[C@H]1c1ccccc1 (stereo partly drawn) [II-325]
+++ (≥350)

Determine its reported Maximum % activity (with co-corrector): COc1ccc(OC(F)(F)F)cc1CN[C@H]1[C@H](C(C)(C)C)[C@@H](C(=O)O)N(C(=O)OC(C)C)[C@H]1c1cccnc1N(C)C [II-552]
+++ (≥350)

Fill in Maximum % activity (with co-corrector) for record COc1ncc(Br)cc1CN[C@H]1[C@H](C(C)(C)C)[C@@H](C(=O)O)N(C(=O)[C@@H]2CCCO2)[C@H]1c1ccccc1C(C)C [II-594]
+++ (≥350)

Tell me Maximum % activity (with co-corrector) reported for COc1ccc(C(C)(C)C)cc1CN[C@H]1[C@H](C(C)(C)C)[C@@H](C(=O)O)N(C(=O)C2(c3cccc(Cl)c3)COC2)[C@H]1c1ccccc1 [II-497]
++ (≥150 and <350)

Source listed as patent US20180099931A1.
